- System: H4
- experiment: Luminescence Cell-Based Dose Response HTS to Identify Activators of 5'UTR Stem-Loop Driven Prion Protein mRNA Translation in H4 Neuroglioblastoma Cells. [Related pubchem assays: 1829 (Project Summary), 1814 (Primary HTS)]
- Type: functional
- experimentalParameters: Homo sapiens
The source made the active and inactive calls.
Recorded EC50 values for a group of molecules are listed next.

Below, 5 molecules whose answers are already recorded.
Can you share its EC50? I mean this molecule: `CC(C)(C)c1cc(-n2ccnc2)n2ncc(-c3ccc(Cl)cc3)c2n1`
78.9 µM (active)

Please do the same for COc1ccc(C(=O)C2=C(O)C(=O)N(c3ccccn3)C2c2ccc(C(C)C)cc2)cc1 (stereo unspecified) as well.
17 µM (active)

Please do the same for `CCc1ccc(NC(=O)c2cnc3scc(C)n3c2=O)cc1` as well.
12.6 µM (active)

Please do the same for `Cc1nnnn1/C(=C\c1ccccc1)C(=O)OCC(=O)Nc1ccc(Cl)cc1F` as well.
5.56 µM (active)

Please do the same for `O=C(Nc1ccc2oc(-c3cccc4ccccc34)nc2c1)c1nc[nH]n1` as well.
5.42 µM (active)

Others:
Can you share its EC50? I mean this molecule: `CC1=CC(C)=Nc2cc(C)ccc2N1`
41.1 µM (active)

----------
- system: UniProt:P35363
- Sequence (P35363 whole entry): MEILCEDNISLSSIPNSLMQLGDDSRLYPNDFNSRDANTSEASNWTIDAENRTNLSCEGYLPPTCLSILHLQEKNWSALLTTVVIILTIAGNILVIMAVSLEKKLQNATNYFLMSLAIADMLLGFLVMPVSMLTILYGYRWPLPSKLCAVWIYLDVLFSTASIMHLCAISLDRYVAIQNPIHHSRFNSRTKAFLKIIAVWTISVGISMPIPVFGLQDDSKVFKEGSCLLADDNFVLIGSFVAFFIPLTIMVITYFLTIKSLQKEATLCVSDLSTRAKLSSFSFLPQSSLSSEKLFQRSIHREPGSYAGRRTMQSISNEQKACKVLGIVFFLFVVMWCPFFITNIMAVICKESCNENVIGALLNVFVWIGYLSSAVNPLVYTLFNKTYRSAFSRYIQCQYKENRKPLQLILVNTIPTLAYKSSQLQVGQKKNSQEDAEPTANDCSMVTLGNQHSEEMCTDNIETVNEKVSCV
- Type: functional, cell-based
Calls of active or inactive are those of the source.
Output constraint: value belongs to active, inactive

Fill in: this test's call for `CN(c1ccc(C(=O)N2CCN(Cc3ccccc3)CC2)cc1)S(=O)(=O)c1ccc(Cl)cc1` is ___
active

Please do the same for `CNCCc1c[nH]c2ccc(O)cc12` as well.
active

Please do the same for `COC(=O)C1CCN(CCCOc2ccc(CN3CCN(c4ccc([N+](=O)[O-])cc4)CC3)cc2)CC1` as well.
active

Please do the same for NC1CCc2cc(O)c(O)cc2C1 (stereo not given) as well.
active

Could you now consider this next molecule?
Fill in: this test's call for `CN1CCc2c(sc(/N=C/c3cc(Cl)ccc3O)c2C#N)C1` is ___
inactive

----------
- system: Cytochrome P450 3A4 (Homo sapiens);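 further: confirmatory qHTS run detecting inhibitors and substrates of CYP3A4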
- experimentalParameters: Potency
reportedMetric: AC50

Can you share its AC50? I mean this compound: CC(=O)Oc1ccc2c(c1)CCC1C2CC[C@]2(C)C(OC(C)=O)CCC12 (some centres undefined)
31.6 µM (inconclusive)

Please do the same for CCN1CCCC1Cn1c(-c2ccccc2)nc2c(N3CCOCC3)nc(C)nc21 (centres undefined) as well.
12.6 µM (inconclusive)

Please do the same for `COC(=O)[C@@H]1C[C@@]2(O)[C@H](O)[C@H](O)[C@H](O)C[C@H]2N1Cc1ccc(C(F)(F)F)cc1` as well.
20 µM (inconclusive)

Below: the item to evaluate.
Can you share its AC50? I mean this compound: CC(C)(C)C(=O)C(Oc1ccc(Cl)cc1)n1cncn1 (centres undefined)
0.794 µM (inconclusive)

----------
- Test system: H9c2;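 further: cell death induced by hydrogen peroxide oxidative stress; compound pretreatment for 60 min then peroxide exposure for 2 h; potency is for protecting the cells against peroxide damage rather than for killing them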;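 further: confirmatory concentration-response retest of ultra-high-throughput screening hits for modulation of myocardial damage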
- experiment: cells
- Type: functional, cell-based
- experimentalParameters: Rattus norvegicus, H9c2, Myocardium
The source made the active and inactive calls.
Output constraint: value belongs to active, inactive

Fill in: this test's call for `CCN(CC(=O)Nc1cc(Cl)ccc1C)C(=O)C1CCN(c2ncnc3sc(C)c(C)c23)CC1` is ___
active

Others:
Fill in: this test's call for `Cc1ncc(CO)c2cc(C(=O)Nc3ccccc3Cl)/c(=N/c3cccc(C(N)=O)c3)oc12` is ___
active

Please do the same for CCOC(=O)C1=C(C)N=C(C)C(=C(O)OCC)C1C(=O)OCC(=O)NC(C)C (stereo unspecified) as well.
inactive

Please do the same for `Cc1cccc(C)c1OCCn1nc(C(=O)O)c2ccccc2c1=O` as well.
inactive

Please do the same for `CN1CCc2nc3ccccc3c(C(=O)OCC(=O)N(CCC#N)c3ccccc3)c2C1` as well.
inactive

Please do the same for `Brc1ccc(-c2nn3c(-c4ccco4)nnc3s2)o1` as well.
inactive

----------
- system: DNA dC->dU-editing enzyme APOBEC-3G (Homo sapiens);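 further: Dose-response counterscreen measuring inhibition of APOBEC3G DNA deaminase activity, run while confirming APOBEC3A inhibitors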
- Sequence (Q9HC16 whole entry): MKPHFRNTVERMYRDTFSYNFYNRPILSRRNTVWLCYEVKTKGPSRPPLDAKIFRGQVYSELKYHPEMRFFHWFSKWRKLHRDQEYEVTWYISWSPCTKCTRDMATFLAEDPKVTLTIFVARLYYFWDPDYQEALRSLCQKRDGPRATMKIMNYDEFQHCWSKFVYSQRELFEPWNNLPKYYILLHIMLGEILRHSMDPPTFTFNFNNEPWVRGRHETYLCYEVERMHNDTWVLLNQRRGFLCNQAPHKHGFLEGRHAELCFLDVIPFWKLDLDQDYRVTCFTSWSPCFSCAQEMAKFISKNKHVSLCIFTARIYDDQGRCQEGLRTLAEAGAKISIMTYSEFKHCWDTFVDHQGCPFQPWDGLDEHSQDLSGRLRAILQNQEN
- Assay type: functional
Activity calls are given as the source filed them.
reportedMetric: IC50

Below, 3 compounds whose answers are already recorded.
Can you share its IC50? I mean this compound: `Cc1c2ccccc2cc(Cc2ccccc2)[n+]1C`
2.98 µM (active)

Please do the same for `COC(=O)C1=C(C)N(Cc2ccccc2)C(NCc2ccc(OC)cc2)=N[C@H]1c1ccccc1` as well.
10.8 µM (active)

Please do the same for O=C1C2C(C(=O)N1/N=C/c1cc([N+](=O)[O-])c(O)cc1O)C1C=CC2C12CC2 (centres undefined) as well.
40.2 µM (active)

Below: the item to evaluate.
Can you share its IC50? I mean this compound: `COC(=O)C1=C(C)N(CC2CC2)C(=NCCN2CCOCC2)N[C@H]1c1ccccc1`
4.91 µM (active)

----------
Recorded AC50 values for a group of compounds are listed next.
- system: Histone-lysine N-methyltransferase NSD2 (Homo sapiens)
- Sequence (O96028 whole entry): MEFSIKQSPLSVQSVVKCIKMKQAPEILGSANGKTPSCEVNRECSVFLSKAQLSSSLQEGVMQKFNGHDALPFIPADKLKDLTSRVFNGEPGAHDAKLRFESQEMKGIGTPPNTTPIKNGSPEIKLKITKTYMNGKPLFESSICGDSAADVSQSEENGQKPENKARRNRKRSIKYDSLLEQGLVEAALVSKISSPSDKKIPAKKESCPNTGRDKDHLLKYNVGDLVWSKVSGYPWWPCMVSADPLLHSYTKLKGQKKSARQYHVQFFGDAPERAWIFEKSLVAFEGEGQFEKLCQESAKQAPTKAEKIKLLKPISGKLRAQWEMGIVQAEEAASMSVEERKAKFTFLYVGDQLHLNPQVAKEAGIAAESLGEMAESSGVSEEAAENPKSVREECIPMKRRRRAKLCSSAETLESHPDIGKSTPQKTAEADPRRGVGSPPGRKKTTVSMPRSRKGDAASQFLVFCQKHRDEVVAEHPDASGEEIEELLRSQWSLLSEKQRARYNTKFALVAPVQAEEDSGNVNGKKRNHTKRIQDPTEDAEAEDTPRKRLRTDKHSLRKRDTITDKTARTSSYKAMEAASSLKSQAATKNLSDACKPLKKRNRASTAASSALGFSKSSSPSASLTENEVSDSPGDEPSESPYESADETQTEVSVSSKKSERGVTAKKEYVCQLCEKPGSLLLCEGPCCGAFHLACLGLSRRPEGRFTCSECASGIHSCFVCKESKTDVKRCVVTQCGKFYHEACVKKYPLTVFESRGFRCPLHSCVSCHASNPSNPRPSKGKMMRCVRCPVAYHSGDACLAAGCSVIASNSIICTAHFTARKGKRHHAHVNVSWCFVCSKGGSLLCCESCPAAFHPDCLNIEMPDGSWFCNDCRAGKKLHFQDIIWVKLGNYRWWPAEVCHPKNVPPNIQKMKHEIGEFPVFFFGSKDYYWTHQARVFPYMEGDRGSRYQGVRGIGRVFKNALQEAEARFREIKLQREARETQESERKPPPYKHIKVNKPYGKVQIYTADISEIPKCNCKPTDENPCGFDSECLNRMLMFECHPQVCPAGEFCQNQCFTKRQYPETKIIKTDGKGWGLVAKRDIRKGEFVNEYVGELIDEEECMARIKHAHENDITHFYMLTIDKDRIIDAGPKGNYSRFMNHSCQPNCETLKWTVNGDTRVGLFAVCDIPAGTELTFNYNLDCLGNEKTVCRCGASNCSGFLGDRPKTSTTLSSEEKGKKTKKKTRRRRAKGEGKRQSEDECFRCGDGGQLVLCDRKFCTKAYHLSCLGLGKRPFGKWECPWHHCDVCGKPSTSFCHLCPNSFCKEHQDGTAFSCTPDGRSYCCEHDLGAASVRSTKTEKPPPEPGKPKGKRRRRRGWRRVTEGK
- Assay type: biochemical
The source made the active and inactive calls.

Can you share its AC50? I mean this compound: `CCc1ccc(S(=O)(=O)Nc2cc(SCC(=O)O)c(O)c3ccccc23)cc1`
4.83 µM (active)

Others:
Can you share its AC50? I mean this compound: `CN(C)c1ccc(/C=C/C=C/c2sc3ccccc3[n+]2C)cc1.[O-][Cl+3]([O-])([O-])[O-]`
15.8 µM (active)

Please do the same for `CCN(CC)CCC/N=C/c1c(-c2ccccc2)nn(-c2nc3ccccc3s2)c1O` as well.
> 20 µM (inactive)

Please do the same for `CC1(C)Cc2ccccc2C2=NNC(=O)C2=N1` as well.
16.4 µM (active)

Please do the same for `O=[N+]([O-])c1ccc(Sc2cccc[n+]2[O-])c2nonc12` as well.
5.12 µM (active)

----------
- system: UniProt G5EF15
- Sequence (G5EF15 whole entry, the tested form may be a part): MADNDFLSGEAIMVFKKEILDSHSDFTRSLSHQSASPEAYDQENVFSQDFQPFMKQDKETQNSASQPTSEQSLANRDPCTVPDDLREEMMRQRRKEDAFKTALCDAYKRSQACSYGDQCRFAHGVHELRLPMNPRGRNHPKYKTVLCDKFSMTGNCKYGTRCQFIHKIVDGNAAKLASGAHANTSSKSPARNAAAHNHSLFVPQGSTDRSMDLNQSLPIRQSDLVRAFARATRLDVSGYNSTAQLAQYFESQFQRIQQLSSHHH
- experiment: inhibitors of POS-1/mex-3 RNA binding, dose response, biochemical, fluorescence polarization (AID 1964);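 further: purified POS-1 fused to maltose binding protein made in E. coli; potency of compounds blocking POS-1 binding to fluorescent RNA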
Calls of active or inactive are those of the source.
reportedMetric: EC50

Below, 2 compounds whose answers are already recorded.
What is its EC50 for UniProt G5EF15? Entry: `O=C(O)c1ccc(-c2ccc(/C=C3\NC(=O)N(Cc4ccc(Cl)cc4)C3=O)o2)cc1Cl`
29.4 µM (active)

Please do the same for `Cc1nn(-c2ccccc2)c(N2CCCC2)c1/C=C1\N=C(c2ccc(F)cc2)OC1=O` as well.
> 300 µM (inconclusive)

Others:
What is its EC50 for UniProt G5EF15? Entry: `COC(=O)c1ccc(-n2c(C)cc(/C=N/n3cnnc3)c2C)cc1`
> 300 µM (not active)

----------
- system: Rac GTPase-activating protein 1 (Homo sapiens, UniProt Q9H0H5)
- Sequence (Q9H0H5 whole entry): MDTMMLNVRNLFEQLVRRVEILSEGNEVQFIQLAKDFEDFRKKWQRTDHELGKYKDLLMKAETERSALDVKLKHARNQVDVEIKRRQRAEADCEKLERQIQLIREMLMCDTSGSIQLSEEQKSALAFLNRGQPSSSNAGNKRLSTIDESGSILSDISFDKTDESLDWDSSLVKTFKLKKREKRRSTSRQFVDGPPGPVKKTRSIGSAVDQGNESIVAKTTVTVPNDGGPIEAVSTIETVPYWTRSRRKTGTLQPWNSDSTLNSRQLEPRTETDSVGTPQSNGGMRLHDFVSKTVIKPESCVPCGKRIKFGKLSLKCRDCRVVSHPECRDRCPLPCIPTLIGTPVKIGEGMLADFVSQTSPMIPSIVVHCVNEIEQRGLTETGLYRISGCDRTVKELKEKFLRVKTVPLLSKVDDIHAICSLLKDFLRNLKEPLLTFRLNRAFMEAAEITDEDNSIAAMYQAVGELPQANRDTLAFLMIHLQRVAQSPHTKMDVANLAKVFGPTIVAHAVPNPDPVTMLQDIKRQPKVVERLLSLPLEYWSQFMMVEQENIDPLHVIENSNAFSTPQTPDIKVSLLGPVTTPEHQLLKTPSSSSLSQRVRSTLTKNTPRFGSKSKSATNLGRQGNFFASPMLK
- experiment: MgcRacGAP GTPase-activating activity inhibitors, confirmation, biochemical, ADP Hunter fluorescence, primary and confirmatory (AID 624330)
- Type: functional
Calls of active or inactive are those of the source.
reportedMetric: IC50

Below, 4 compounds whose answers are already recorded.
Can you share its IC50? I mean this compound: `CCN(CC)c1ccc(NC(=O)Nc2ccccc2)cc1`
45 µM (active)

Please do the same for `CN(C)c1ccc(/C=C/C=C/c2sc3ccccc3[n+]2C)cc1.[O-][Cl+3]([O-])([O-])[O-]` as well.
62.6 µM (active)

Please do the same for `Oc1ccc(NC(=S)N=Nc2c(O)[nH]c3ccccc23)cc1` as well.
21.5 µM (active)

Please do the same for CC1(C)CC(=O)C(C(C2=C(O)CC(C)(C)CC2=O)c2cccs2)C(=O)C1 (stereo not given) as well.
73 µM (active)

Below: the item to evaluate.
Can you share its IC50? I mean this compound: `Cc1ccc(/C=N/n2c(S)nnc2-c2cccnc2)s1`
53.9 µM (active)

----------
- system: Ubiquitin-conjugating enzyme E2 N (Homo sapiens)
- Sequence (P61088 whole entry): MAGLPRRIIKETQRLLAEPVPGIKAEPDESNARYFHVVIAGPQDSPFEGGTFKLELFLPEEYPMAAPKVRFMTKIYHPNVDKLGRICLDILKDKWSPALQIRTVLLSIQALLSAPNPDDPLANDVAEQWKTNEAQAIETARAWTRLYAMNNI
- Format: functional
Active and inactive are the calls of the source.
Recorded IC50 values for a group of molecules are listed next.

Below, 3 molecules whose answers are already recorded.
Can you share its IC50? I mean this molecule: O=C1c2cccc3cccc(c23)C(=O)N1CCN1CCN(CC(O)COCc2ccc(Cl)cc2)CC1 (centres undefined)
2310 nM (active)

Please do the same for `CC1(C)Cc2c(sc(NC(=O)C(=O)NCCCN3CCOCC3)c2C(N)=O)CO1` as well.
2140 nM (active)

Please do the same for `Oc1ccc(NC(=S)N=Nc2c(O)[nH]c3ccccc23)cc1` as well.
763 nM (active)

Below: the item to evaluate.
Can you share its IC50? I mean this molecule: `CCN(Cc1ccccc1)S(=O)(=O)c1ccc(C(=O)N(CCCN(C)C)c2nc3cc4c(cc3s2)OCCO4)cc1`
2930 nM (active)

----------
Recorded IC50 values for a group of molecules are listed next.
- system: Phospholipase A2 (Homo sapiens);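 further: confirmatory dose-response counterscreen on phospholipase A2, testing hits that came from an ultra-high-throughput screen for ATG4B inhibitors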
- Sequence (P04054 whole entry): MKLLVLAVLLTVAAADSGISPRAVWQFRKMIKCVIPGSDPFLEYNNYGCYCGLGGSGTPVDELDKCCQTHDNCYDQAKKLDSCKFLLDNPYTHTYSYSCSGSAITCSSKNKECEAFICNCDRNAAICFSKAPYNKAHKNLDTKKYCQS
- Format: functional
The source made the active and inactive calls.

Can you share its IC50? I mean this molecule: `Cc1sc2nc(C3CCCCC3)nc(SCC(=O)N3CC(=O)Nc4ccccc43)c2c1C`
0.182 µM (active)

Please do the same for `O=C(O)c1ccc(-c2ccc(/C=C3\NC(=O)N(Cc4ccc(Cl)cc4)C3=O)o2)cc1Cl` as well.
16.1 µM (active)

Please do the same for `Oc1c(Br)cc(Br)cc1/C=N/c1ccc2c(c1)OCO2` as well.
7.68 µM (active)

Below: the item to evaluate.
Can you share its IC50? I mean this molecule: CC1CC(C)CN(C(=O)c2ccc(C(=O)c3ccccc3)cc2)C1 (centres undefined)
8.32 µM (active)
